Assay Target: FHV-1 gB (Feline herpesvirus 1, UniProt Q86665)
Procedure Text: biochemical
Assay type: binding, feline herpesvirus-1 (FHV-1)
Test Parameters: read-out: Kon (rate of association)
Each record here notes measured kon.
Value Kind: kon (M⁻¹ s⁻¹)

Molecule	Assay Target	Reported Value
O=c1c(O[C@@H]2O[C@H](CO)[C@H](O)[C@H](O)[C@H]2O)c(-c2ccc(O)c(O)c2)oc2cc(O)cc(O)c12 [Hyperoside]	FHV-1 gB (Feline herpesvirus 1, UniProt Q86665)	286
O=C(/C=C/c1ccc(O)c(O)c1)O[C@@H]1C[C@@](OC(=O)/C=C/c2ccc(O)c(O)c2)(C(=O)O)C[C@@H](O)[C@@H]1O [Cynarine]	FHV-1 gB (Feline herpesvirus 1, UniProt Q86665)	709
O=C1OC[C@H]2OC(O)[C@H](O)[C@@H](O)[C@@H]2OC(=O)c2cc(O)c(O)c(O)c2-c2c(O)c(O)c3oc(=O)c4c(c(O)c(O)c5oc(=O)c2c3c54)-c2c1cc(O)c(O)c2O (mixture of isomers) [Punicalin]	FHV-1 gB (Feline herpesvirus 1, UniProt Q86665)	12500
COc1ccc(-c2cc(=O)c3c(O)cc(O[C@@H]4O[C@H](CO[C@@H]5O[C@@H](C)[C@H](O)[C@@H](O)[C@H]5O)[C@@H](O)[C@H](O)[C@H]4O)cc3o2)cc1O [Diosmin]	FHV-1 gB (Feline herpesvirus 1, UniProt Q86665)	374
O=c1c(O[C@@H]2O[C@H](CO)[C@@H](O)[C@H](O)[C@H]2O)c(-c2ccc(O)c(O)c2)oc2cc(O)cc(O)c12 [Isoquercetin]	FHV-1 gB (Feline herpesvirus 1, UniProt Q86665)	245
C=CCS[S+]([O-])CC=C (centres unmarked) [Allicin]	FHV-1 gB (Feline herpesvirus 1, UniProt Q86665)	0.846
C[C@@H]1O[C@@H](O[C@@H]2[C@@H](O)[C@H](OCCc3ccc(O)c(O)c3)O[C@H](CO)[C@H]2OC(=O)/C=C/c2ccc(O)c(O)c2)[C@H](O)[C@H](O)[C@H]1O [Verbascoside]	FHV-1 gB (Feline herpesvirus 1, UniProt Q86665)	183
O=C(O)[C@H]1O[C@@H](Oc2cc3oc(-c4ccccc4)cc(=O)c3c(O)c2O)[C@H](O)[C@@H](O)[C@@H]1O [Baicalin]	FHV-1 gB (Feline herpesvirus 1, UniProt Q86665)	1090
